B1: LINE1-mini (parent)
chain: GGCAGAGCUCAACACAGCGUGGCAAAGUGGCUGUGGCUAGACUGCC

variants of: B1; assay: self-cleavage, relative activity (ratio to wild type); higher = more cleavage; in vitro, sequencing; the parent is a self-cleaving ribozyme
Label 0 (no) if self-cleavage falls below 0.09; label 1 (yes) in every other case.

The following variants have reported results that may help.
Confirm if self-cleavage reported for the variant U9C C31U is 0.09 or above. 0 (no)

Assess whether reported self-cleavage for A6G A14U sits at 0.09 or higher. 0 (no)

Does the reported self-cleavage for G29C U34C fall at or above the 0.09 mark? 1 (yes)

Given U28A G44U , state whether its self-cleavage is at least 0.09. 1 (yes)

For this variant, is measured self-cleavage 0.09 or higher? G36A G40U 1 (yes)

***
API: above_or_equal(metric=self-cleavage, cutoff=0.09) for item G7C U32A 0 (no)

Check the entry A39C C42G : does self-cleavage equal or exceed 0.09? 0 (no)

Determine whether measured self-cleavage meets or exceeds 0.09 for G5U G22A 1 (yes)

# bool: self-cleavage of C15A U20A >= 0.09 1 (yes)

I'd appreciate it if you could say whether C23G A26C has self-cleavage at least equal to 0.09. 1 (yes)

Record A16U U34C ; criterion: self-cleavage no lower than 0.09. Met? 0 (no)

Is reported self-cleavage greater than or equal to 0.09 here: G29C C45G 1 (yes)

API: above_or_equal(metric=self-cleavage, cutoff=0.09) for item C18A A39C 0 (no)

Is self-cleavage at least 0.09? Consider G22U U43G 0 (no)

Test whether the variant A14U G44U records self-cleavage of 0.09 or higher. 0 (no)

Check if self-cleavage >= 0.09 (inclusive). Item: A14U A39G 0 (no)

hey, is self-cleavage for this one >= 0.09? A6C G29U 1 (yes)

State whether the measured self-cleavage reaches 0.09, counting equality as reaching it, for G7C C45A 1 (yes)

Is it the case that C10A A24C has self-cleavage reaching or exceeding 0.09? 0 (no)

# check: self-cleavage of G5A U28C is greater than or equal to 0.09 1 (yes)

Could you please find out whether C18A A24U has self-cleavage that meets 0.09 or exceeds it? 1 (yes)
